# Test system: MS2 coat protein
# test_description: apparent KD of MS2 coat protein; higher = weaker reporter binding
# measurement_parameters: Eterna round: R107; input ligand: theophylline 20 uM

primary_sequence	unit_string	apparent KD of MS2 coat protein
UACUUGCUGACGGCCGCCACUAGAACAUGAGGAUCACCCAUGUAUGGCGGCCGAAUCCUCAUGACUAGGACCGGGUCAGCAAGAU [(Trp1)-(Ms2)-(T)'-(M)'-(Trp2)_Design2]	nM	12.5
UACAUAUGCCGAAGGAGCGUGAGAUGCAAAGCAUCAUUCCUCACAUGAGGAUCACCCAUGUCACAGGUAGGUCGCGGCAUAUGUU [ArgBX 3]	nM	115
UGUAUGUGAUUUGAUACCAGACCAGCUGGUGGUACAUGAGCAUCAGCCAUGUAGGUUUGGGUCCCUUGGCAGCAAAUCGCAUACU [SS Theo B #24 Ms2]	nM	28.7
ACAUGAGGGCGAAGGAGCGCGAACAUGAGGAUCACCCAUGUCUAUAUCCGUCCGCAUGUAUCGCAGGUAGGUCGCGCUGUUACUU [#13 Exclusion - Arginine B]	nM	11.4
AGAUUCGACACGGCCGCCACUCGUGGAGGAUUACCGAGUGUCGAACAUGAGGAUCACCCAUGUACGAGGACCGGGUGUUGAGUCU [XTryp B #15]	nM	32.2
CCCAGUUAUAACAAAGGAAUAAUACUCGAAGGAGCGUCAUAGUAGGCAGGUAGGUCGCGAGACAUGAGGAUCACCCAUGUAGAGA [qvvmullin]	nM	49.5

---

# Tested on: MS2 coat protein
# test_description: apparent KD of MS2 coat protein; designed switch direction (-1 OFF switch, 1 ON switch): -1; higher = weaker reporter binding
# measurement_parameters: Eterna round: R95; input ligand: microRNA oligo, concentration not stated

primary_sequence	apparent KD of MS2 coat protein (nM)
CCGGCUUAGGAGGAUAUAGGAGUCGAUAGACACCUAGAAGGCCUGACAUGAGGAUCACCCAUGUGUCCUACCGG [Fiskers Ex 6 - 98] (puzzle: Exclusion 6)	14.2
GAGCUAUGAGGAUAUGCAUAUAUACGGAUUCGUGUAGUACUACAUGAGGAUCACCCAUGUAGAAGGCGUGGCUG [JL-ex2-2.03 mat747 mod] (puzzle: Exclusion 2)	13.2
AACAAUAAGGAGGAUAUCGUAUCGGAAACGAUACGAGAAGGCUUAACAUGAGGAUCACCCAUGUUCUUCAAUAA [Fiskers Ex 6 - 24] (puzzle: Exclusion 6)	17.1
GGCAUAAACGAGGAUAUCGUAUCGGAAACGAUACGAGAAGGUGUAACAUGAGGAUCACCCAUGUUCCUCAAGCC [Mat - Exclusion 6 - Eli Mod - D58] (puzzle: Exclusion 6)	38.1
GCCAGAUCAGGAUAUCUAAUAUAUCACAUGAGGAUCACCCAUGUCCAGCGAAAGCUGGAGGGAGAAGGGAUCUGGC [Mat - Exclusion 5 - Eli mod - D102] (puzzle: Exclusion 5)	79.8

---

Listing of recorded apparent KD of MS2 coat protein by entry.
# Test system: MS2 coat protein
# test_description: apparent KD of MS2 coat protein; designed switch direction (-1 OFF switch, 1 ON switch): 1; higher = weaker reporter binding
# measurement_parameters: input ligand: none

primary_sequence	apparent KD of MS2 coat protein, nM
UUGAAUAAUUAAGGAUAUCGAGUCAAGAUGUUAAACAUGAGGAUCACCCAUGUGGGUUGCGGUAUCGAGAAGGUAAAUAAUAAG [Mat - Same State NG 2 - JL mod - D56] (Eterna round: R96, puzzle: Same State NG 2)	36.5
AAAGGAUGAUGUUACAUGAGGAUCACCCAUGUAGUGAUAACUAAGGAUAUGUGUUAAACCAGUUAAUAGAAGGUAGGAUCAUUA [AK SSNG3-V2-6] (Eterna round: R96, puzzle: Same State NG 3)	49.4
AGUCAAGACAUGAGGAUCACCCAUGUUGGGAACAUGGAGGACGAGGAUAUGUGUCGAUAUGUGACGUAGAAGGCGUCAGACAAA [Eternabot solution 33] (Eterna round: R96, puzzle: Same State NG 3)	419
GGAGCCGACACUGAGGAUAUUCAUAUUAAAACAUGAGGAUCACCCAUGUAGGCCAGAAGGCCUUGGGAGAAGGCAGGCCGGCUCG [Inxebi] (Eterna round: R96, puzzle: Same State 2)	287
